- Experimental System: hAChE (Homo sapiens, UniProt P22303)
- Sequence (P22303 32-614): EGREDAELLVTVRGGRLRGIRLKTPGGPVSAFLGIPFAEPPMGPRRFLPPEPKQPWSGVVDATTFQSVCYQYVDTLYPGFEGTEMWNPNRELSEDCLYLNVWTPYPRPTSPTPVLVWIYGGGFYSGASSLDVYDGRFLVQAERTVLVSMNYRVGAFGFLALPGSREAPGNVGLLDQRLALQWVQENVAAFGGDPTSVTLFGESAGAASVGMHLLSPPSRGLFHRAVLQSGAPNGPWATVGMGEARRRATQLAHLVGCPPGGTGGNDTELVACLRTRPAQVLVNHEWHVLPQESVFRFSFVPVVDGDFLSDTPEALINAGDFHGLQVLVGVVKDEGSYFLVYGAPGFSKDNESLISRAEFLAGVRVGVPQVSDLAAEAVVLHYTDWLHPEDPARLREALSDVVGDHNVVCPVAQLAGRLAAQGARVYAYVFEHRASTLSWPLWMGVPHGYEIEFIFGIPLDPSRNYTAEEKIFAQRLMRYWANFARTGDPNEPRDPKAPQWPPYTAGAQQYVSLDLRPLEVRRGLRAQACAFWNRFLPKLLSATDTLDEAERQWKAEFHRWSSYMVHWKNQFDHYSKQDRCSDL
- Assay Explanation: biochemical
- Format: biochemical
- Measurement Conditions: selectivity index, ratio hBuChE IC50/hAChE IC50

Compound | Experimental System | Relation Operator | SI for hAChE
COC1C=CC23c4cc5c(cc4CN(CC2OC(=O)c2cccc(Cl)c2)C3C1)OCO5 (centres unmarked) | hAChE (Homo sapiens, UniProt P22303) | = | 0.9
COC1C=CC23c4cc5c(cc4CN(CC2OC(=O)c2cccc(Br)c2)C3C1)OCO5 (centres unmarked) | hAChE (Homo sapiens, UniProt P22303) | = | 1.1
COC1C=CC23c4cc5c(cc4CN(CC2OC(=O)C(C)C)C3C1)OCO5 (centres unmarked) | hAChE (Homo sapiens, UniProt P22303) | < | 0.4
COc1cccc(C(=O)OC2CN3Cc4cc5c(cc4C24C=CC(OC)CC34)OCO5)c1 (centres unmarked) | hAChE (Homo sapiens, UniProt P22303) | = | 0.4
COC1C=CC23c4cc5c(cc4CN(CC2OC(=O)c2ccccc2)C3C1)OCO5 (centres unmarked) | hAChE (Homo sapiens, UniProt P22303) | = | 0.02
CCCCCC(=O)OC1CN2Cc3cc4c(cc3C13C=CC(OC)CC23)OCO4 (centres unmarked) | hAChE (Homo sapiens, UniProt P22303) | < | 0.5
CCCC(=O)OC1CN2Cc3cc4c(cc3C13C=CC(OC)CC23)OCO4 (centres unmarked) | hAChE (Homo sapiens, UniProt P22303) | < | 0.3
CCC(=O)OC1CN2Cc3cc4c(cc3C13C=CC(OC)CC23)OCO4 (centres unmarked) | hAChE (Homo sapiens, UniProt P22303) | < | 0.9
